System Name: BCL-XL (Homo sapiens, UniProt Q07817)
Construct: endogenous in cells; host or cells: MOLT-4
Sequence (Q07817 whole entry): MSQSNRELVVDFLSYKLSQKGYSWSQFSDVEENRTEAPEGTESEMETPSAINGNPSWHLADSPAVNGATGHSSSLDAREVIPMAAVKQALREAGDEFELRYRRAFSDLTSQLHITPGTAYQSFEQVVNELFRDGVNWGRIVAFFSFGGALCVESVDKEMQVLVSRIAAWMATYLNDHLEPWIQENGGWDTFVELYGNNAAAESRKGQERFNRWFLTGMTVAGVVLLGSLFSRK
Procedure Details: Bcl-xL ELISA degradation in MOLT-4 cells, 6 h
Format: cell-based
Test Conditions: read-out: Bcl-xL ELISA in MOLT-4 degradation 6 h: Mean external-Abs DC50
Observation Type: DC50

Example entries and their recorded answers appear below.
Molecule | Assay Value
C#Cc1ccc(CNC(=O)[C@@H]2C[C@@H](O)CN2C(=O)[C@@H](NC(=O)CCCCCS(=O)(=O)NC(=O)c2nc(N(C)c3cc(C)c(Nc4nc5ccccc5s4)nn3)ccc2-c2cnn(CC34CC5CC(CC(C5)C3)C4)c2C)C(C)(C)C)cc1 | < 0.01 µM
Cc1cc(N(C)c2ccc(-c3cnn(CC45CC6CC(CC(C6)C4)C5)c3C)c(C(=O)NS(=O)(=O)CCCCCC(=O)N[C@H](C(=O)N3C[C@H](O)C[C@H]3C(=O)N[C@@H](C)c3ccc4c(c3)c(C)nn4C)C(C)(C)C)n2)nnc1Nc1nc2ccccc2s1 (single isomer, unassigned) | < 0.01 µM
Cc1ncsc1-c1ccc([C@H](C)NC(=O)[C@@H]2C[C@@H](O)CN2C(=O)[C@@H](c2cc(OC3CCN(CCNC(=O)c4nc(N5CCc6cccc(C(=O)Nc7nc8ccccc8s7)c6C5)ccc4-c4cnn(CC5CCCCC5)c4C)CC3)no2)C(C)C)cc1 | 0.5 to 1 µM

## Task Data request, read-out DC50, for Cc1cc(N(C)c2ccc(-c3cnn(CC45CC6CC(CC(C6)C4)C5)c3C)c(C(=O)NS(=O)(=O)CCCC(=O)N[C@H](C(=O)N3C[C@H](O)C[C@H]3C(=O)N[C@@H](C)c3ccc(-c4scnc4C)cc3)C(C)(C)C)n2)nnc1Nc1nc2ccccc2s1
## Result 0.01 to 0.1 µM

----------
System Name: BCL-XL (Homo sapiens)
Construct: endogenous in cells; host or cells: MOLT-4
Procedure Details: BCL-XL degradation assay, western blot in MOLT-4 cells, 16 h
Type: cell-based
Test Conditions: western blot, MOLT-4 cells, 16 h; read-out: Bcl-xL WB in MOLT-4 degradation 16 h: Mean external-Abs DC50
Item-by-item account of DC50

These recorded examples may help you get a feel for the data.
Compound | System Name | DC50
Cc1cc([C@H](C(=O)N2C[C@H](O)C[C@H]2C(=O)NCc2ccc(-c3scnc3C)cc2OCCCCCCNC(=O)c2nc(N3CCc4cccc(C(=O)Nc5nc6ccccc6s5)c4C3)ccc2-c2cnn(CC3CCCCC3)c2C)C(C)C)on1 | BCL-XL (Homo sapiens) | 0.01 to 0.1 µM
Cc1ncsc1-c1ccc(CNC(=O)[C@@H]2C[C@@H](O)CN2C(=O)[C@@H](NC(=O)C2(F)CC2)C(C)(C)C)c(OCCN2CCN(C(=O)c3nc(N4CCc5cccc(C(=O)Nc6nc7ccccc7s6)c5C4)ccc3-c3cnn(CC4CCCCC4)c3C)CC2)c1 | BCL-XL (Homo sapiens) | 0.01 to 0.1 µM
Cc1ncsc1-c1ccc([C@H](C)NC(=O)[C@@H]2C[C@@H](O)CN2C(=O)[C@@H](NC(=O)CCCCCC(=O)N(C)CCCc2cccc(F)c2OCCCc2sc(N3CCc4cccc(C(=O)Nc5nc6ccccc6s5)c4C3)nc2C(=O)O)C(C)(C)C)cc1 | BCL-XL (Homo sapiens) | 0.1 to 0.5 µM
Cc1cc(N(CCCC(=O)N[C@H](C(=O)N2C[C@H](O)C[C@H]2C(=O)N[C@@H](C)c2ccc(-c3scnc3C)cc2)C(C)(C)C)c2ccc(-c3cnn(CC4CCCCC4)c3C)c(C(=O)O)n2)nnc1Nc1nc2ccccc2s1 | BCL-XL (Homo sapiens) | > 1 µM
Cc1ncsc1-c1ccc([C@H](C)NC(=O)[C@@H]2C[C@@H](O)CN2C(=O)[C@@H](NC(=O)CCCCCS(=O)(=O)NC(=O)c2ccc(N3CCN(CC4=C(c5ccc(Cl)cc5)CCC(C)(C)C4)CC3)cc2)C(C)(C)C)cc1 | BCL-XL (Homo sapiens) | > 1 µM

## Task Need DC50, item Cc1ncsc1-c1ccc([C@H](C)NC(=O)[C@@H]2C[C@@H](O)CN2C(=O)[C@@H](NC(=O)N2CC3(CN(CCCS(=O)(=O)NC(=O)c4nc(N5CCc6cccc(C(=O)Nc7nc8ccccc8s7)c6C5)ccc4-c4cnn(CC5CCCCC5)c4C)C3)C2)C(C)(C)C)cc1
## Result 0.1 to 0.5 µM

## Task For the compound shown here, Cc1ncsc1-c1ccc([C@H](C)NC(=O)[C@@H]2C[C@@H](O)CN2C(=O)[C@@H](NC(=O)C[C@H]2CC[C@H](C(=O)N3CCN(CC[C@H](CSc4ccccc4)Nc4ccc(S(=O)(=O)NC(=O)c5ccc(N6CCN(CC7=C(c8ccc(Cl)cc8)CCC(C)(C)C7)CC6)cc5)cc4S(=O)(=O)C(F)(F)F)CC3)CC2)C(C)(C)C)cc1 , give the reported DC50.
## Result 0.01 to 0.1 µM

## Task Query: DC50; subject: Cc1ncsc1-c1ccc(CNC(=O)[C@@H]2C[C@@H](O)CN2C(=O)[C@@H](NC(=O)C2(F)CC2)C(C)(C)C)c(O[C@H]2CC[C@@H](N3CCN(CC[C@H](CSc4ccccc4)Nc4ccc(S(=O)(=O)NC(=O)c5ccc(N6CCN(CC7=C(c8ccc(Cl)cc8)CCC(C)(C)C7)CC6)cc5)cc4S(=O)(=O)C(F)(F)F)CC3)CC2)c1 (single isomer, unassigned)
## Result > 1 µM

----------
Consider the following compounds and their measured Dmax readings.
System Name: BCL-XL (Homo sapiens, UniProt Q07817)
Construct: endogenous in cells; host or cells: MOLT-4
Procedure Details: Bcl-xL ELISA degradation in MOLT-4 cells, 6 h
Assay type: cell-based
Procedure: The letter codes for BCL-XL DC50 include: A (<0.01 μM); B (0.01-0.1 μM); C (>[…]); D (>0.5-1.0 μM); and E (>1.0 μM). The letter codes for Dmax % include A (>75%); B (50 to 75%); C (<50%).

Compound | Dmax
Cc1ncsc1-c1ccc([C@H](C)NC(=O)[C@@H]2C[C@@H](O)CN2C(=O)[C@H](c2cc(OC3CCN(CCNC(=O)c4nc(N5CCc6cccc(C(=O)Nc7nc8ccccc8s7)c6C5)ccc4-c4cnn(CC5CCCCC5)c4C)CC3)no2)C(C)C)cc1 | 50 to 75%

Turning to the following compound.
## Task Item under review: C#Cc1ccc([C@H](CO)NC(=O)[C@@H]2C[C@@H](O)CN2C(=O)C(c2cc(OC3CCN(CCCS(=O)(=O)NC(=O)c4nc(N5CCc6cccc(C(=O)Nc7nc8ccccc8s7)c6C5)ccc4-c4cnn(CC5CCCCC5)c4C)CC3)no2)C(C)C)cc1 (some centres unmarked) . Reported Dmax?
## Result 50 to 75%

----------
System Name: BCL-XL (Homo sapiens, UniProt Q07817)
Construct: endogenous in cells; host or cells: MOLT-4
Procedure Details: Bcl-xL ELISA degradation in MOLT-4 cells, 6 h
Type: cell-based
Test Conditions: read-out: Bcl-xL ELISA in MOLT-4 degradation 6 h: Mean external-Abs DC50
Observation Type: DC50

Molecule | Observation Type | Assay Value
Cc1ncsc1-c1ccc(CNC(=O)[C@@H]2C[C@@H](O)CN2C(=O)[C@@H](NC(=O)C2CCN(c3ccc(S(=O)(=O)NC(=O)c4nc(N5CCc6cccc(C(=O)Nc7nc8ccccc8s7)c6C5)ccc4-c4cnn(CC5CCCCC5)c4C)cc3)CC2)C(C)(C)C)cc1 | DC50 | 10 to 100 nM
Cc1ncsc1-c1ccc([C@H](C)NC(=O)[C@@H]2C[C@@H](O)CN2C(=O)[C@@H](NC(=O)CCCCCCC(=O)N2CCN(CC3(C)CCC(c4ccc(Cl)cc4)=C(CN4CCN(c5ccc(C(=O)NS(=O)(=O)c6ccc(N[C@H](CCN7CCOCC7)CSc7ccccc7)c(S(=O)(=O)C(F)(F)F)c6)cc5)CC4)C3)CC2)C(C)(C)C)cc1 (stereo partly shown) [I-399] | DC50 | 100 to 500 nM
Cc1ncsc1-c1ccc(CNC(=O)[C@@H]2C[C@@H](O)CN2C(=O)[C@@H](NC(=O)C2(F)CC2)C(C)(C)C)c(OCCN2CCN(CC[C@H](CSc3ccccc3)Nc3ccc(S(=O)(=O)NC(=O)c4ccc(N5CCN(CC6=C(c7ccc(Cl)cc7)CCC(C)(C)C6)CC5)cc4)cc3S(=O)(=O)C(F)(F)F)CC2)c1 | DC50 | 10 to 100 nM

Turning now to a further record.
## Task Give its DC50 value. Item: Cc1cc([C@@H](C(=O)N2C[C@H](O)C[C@H]2C(=O)NCc2ccc(-c3scnc3C)cc2OCCCN2CCN(C(=O)c3nc(N4CCc5cccc(C(=O)Nc6nc7ccccc7s6)c5C4)ccc3-c3cnn(CC4CCCCC4)c3C)CC2)C(C)C)on1
## Result < 10 nM
